- method: Cytotoxicity against human HCT15 cells assessed as cell growth at 10 uM after 24 hrs by SRB assay
- Format: functional
- condition_details: HCT-15, 24 h, read-out: Activity
assay_metric: growth at 10 µM (%)

                                        smi     assay_metric  observed_measurement
0  Cc1cc(Cl)ccc1C(=O)Nc1cc(-c2cccnc2)nc(NCCCN2CCOCC2)n1  growth at 10 µM                   104
1  COCCCNc1nc(NC(=O)c2ccc(Cl)cc2C)cc(-c2cccnc2)n1  growth at 10 µM                   109
2  COc1cc(OC)cc(C(=O)Nc2cc(-c3cccnc3)nc(NCCCN3CCOCC3)n2)c1  growth at 10 µM                  90.6
3  O=C(Nc1cc(-c2cccnc2)nc(NCCCN2CCOCC2)n1)c1cc(Br)cc(C(F)(F)F)c1  growth at 10 µM                  6.87
4  COCCCNc1nc(NC(=O)c2cc(OC)cc(OC)c2)cc(-c2cccnc2)n1  growth at 10 µM                  90.3
5  COCCCNc1nc(NC(=O)c2cc(Br)cc(C(F)(F)F)c2)cc(-c2cccnc2)n1  growth at 10 µM                  85.9
6  O=C(Nc1cc(-c2cccnc2)nc(NCCCN2CCOCC2)n1)c1ccc(F)cc1Cl  growth at 10 µM                  94.5
